Where these numbers come from: ChEMBL document CHEMBL2016442

Provide the recorded CC50 for the entries that follow.
Test: Cytotoxicity against human fibroblasts assessed as cell viability by microplate reader
Assay type: cell-based, Fibroblast
Conditions: read-out: TD50 (the source's name)
Answers are plain numbers, in µM.

CCOc1c(OC)ccc2cc3[n+](cc12)CCc1cc2c(cc1-3)OCO2; 9.6

For every listed record, write down its CC50.
1. COc1ccc2cc3[n+](cc2c1OC(C)=O)CCc1cc2c(cc1-3)OCO2
2. CCCC(=O)Oc1c(OC)ccc2cc3[n+](cc12)CCc1cc2c(cc1-3)OCO2
3. CCCCCOc1c(OC)ccc2cc3[n+](cc12)CCc1cc2c(cc1-3)OCO2
4. COc1ccc2c(c1OC)C(C)N1CCc3cc4c(cc3C1=C2)OCO4 (stereo not drawn)
5. COc1ccc2c(c1OC)CN1CCc3cc4c(cc3[C@@H]1C2)OCO4

1. 45
2. 135
3. 5.9
4. 12
5. 210

Provide reported CC50 for each item, in the same order as listed.
1. CCCCCCCOc1c(OC)ccc2cc3[n+](cc12)CCc1cc2c(cc1-3)OCO2
2. COc1ccc2cc3[n+](cc2c1O)CCc1cc2c(cc1-3)OCO2

[1.1, 81]
